B1: KLHL14 (parent)
chain: NETGYLSSVECYNLETNEWRYVSS

Variants of: B1
assay.details: protein stability index of a GFP-peptide fusion (GPS, HEK-293T) (PSI 1-6); higher = more stable;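 also: lentivirally expressed fusions sorted by FACS into six bins by GFP to DsRed ratio, PSI derived from sequencing read proportions per bin multiplied by bin number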
measurement.setup: c terminus: a fixed tail appended
List of protein stability index values.
assay.endpoint: protein stability index

item_sequence="NETGYLSSVECYNLETNEWRYTSS [V22T]" recorded_value=3.01
item_sequence="NDTGYLSSVECYNLETNEWRYVSS [E2D]" recorded_value=3.52
item_sequence="NETAYLSSVECYNLETNEWRYVSS [G4A]" recorded_value=3.75
item_sequence="NETGYLSSVECYNLETNQWRYVSS [E18Q]" recorded_value=2.93
item_sequence="NETGYLSSVECYNLETNNWRYVSS [E18N]" recorded_value=3.49
item_sequence="NETGYLSSVWCYNLETNEWRYVSS [E10W]" recorded_value=1.75
item_sequence="NETGYTSSVECYNLETNEWRYVSS [L6T]" recorded_value=3.97
item_sequence="NETGYLSSVECYNLETNEWEYVSS [R20E]" recorded_value=4.04
item_sequence="NETGYLSSVECYNLETNAWRYVSS [E18A]" recorded_value=2.83
item_sequence="NFTGYLSSVECYNLETNEWRYVSS [E2F]" recorded_value=1.72
item_sequence="KETGYLSSVECYNLETNEWRYVSS [N1K]" recorded_value=3.55
item_sequence="NETGYLSSVECYNLSTNEWRYVSS [E15S]" recorded_value=2.08
item_sequence="NETGYLSSVECYNLETNEFRYVSS [W19F]" recorded_value=4.71
item_sequence="NETGYLSSVECYNLETNEWRYVYS [S23Y]" recorded_value=3.71
item_sequence="NETGYLSSCECYNLETNEWRYVSS [V9C]" recorded_value=3.35
item_sequence="NETGYLSSVECYNLETNEWRYVIS [S23I]" recorded_value=4.09
item_sequence="NETFYLSSVECYNLETNEWRYVSS [G4F]" recorded_value=2.39
item_sequence="NETGYLSSVECTNLETNEWRYVSS [Y12T]" recorded_value=3.89
item_sequence="NETGYLSSVECYNLETNEMRYVSS [W19M]" recorded_value=4.36
item_sequence="NETGYLSSVECYNLETNEARYVSS [W19A]" recorded_value=4.75
item_sequence="NETGYLSMVECYNLETNEWRYVSS [S8M]" recorded_value=2.73
item_sequence="LETGYLSSVECYNLETNEWRYVSS [N1L]" recorded_value=3.04

The measured values listed here are drawn from the supplement of paper PMC10567573.
